- target-under-test: GST-Aq-NF-kB (Amphimedon queenslandica, UniProt A9Y5G7 2-389)
- Sequence: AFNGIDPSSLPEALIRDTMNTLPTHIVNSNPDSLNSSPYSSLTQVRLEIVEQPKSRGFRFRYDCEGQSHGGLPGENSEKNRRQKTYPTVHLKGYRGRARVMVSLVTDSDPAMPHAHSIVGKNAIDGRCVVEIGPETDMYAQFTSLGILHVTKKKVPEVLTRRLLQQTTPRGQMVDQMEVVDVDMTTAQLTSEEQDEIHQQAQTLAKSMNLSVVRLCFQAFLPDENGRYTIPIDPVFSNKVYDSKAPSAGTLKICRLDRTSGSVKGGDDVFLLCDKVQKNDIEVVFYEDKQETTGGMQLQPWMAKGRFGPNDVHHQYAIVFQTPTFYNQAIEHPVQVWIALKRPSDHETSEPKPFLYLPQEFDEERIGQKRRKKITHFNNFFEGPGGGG
- test-method-notes: protein-binding microarray (PBM); PBM: ~300 nM protein, 6 mM HEPES pH 7.8, 80 mM KCl, 0.5 mM EDTA, 0.5 mM EGTA, 6% glycerol, 35 ng/ul poly-dIdC, 1% milk, 1 h, room temperature; Ap Aiptasia and Nv Nematostella (sea anemones) / Co Capsaspora / Aq Amphimedon (sponge) / Dm Drosophila / Hu human; RHD is the Rel homology domain; high values mean tight binding
- particulars: dsDNA, one strand shown
assay-metric: binding signal (z-score)
Give the number; z-score is assumed, so skip it.

{"item-sequence": "CCGATTAACATCAGAAAAACACCTGATGTTAATCGGGTCTTGATTCGCTTGACGCTGCTG", "target-under-test": "GST-Aq-NF-kB (Amphimedon queenslandica, UniProt A9Y5G7 2-389)", "binding signal / z-score": 3.91}
{"item-sequence": "CCGATTAACATCAGGCATCCCCCTGATGTTAATCGGGTCTTGATTCGCTTGACGCTGCTG", "target-under-test": "GST-Aq-NF-kB (Amphimedon queenslandica, UniProt A9Y5G7 2-389)", "binding signal / z-score": 6.35}
{"item-sequence": "CCGATTAACATCAGGGAAAACGATGATGTTAATCGGGTCTTGATTCGCTTGACGCTGCTG", "target-under-test": "GST-Aq-NF-kB (Amphimedon queenslandica, UniProt A9Y5G7 2-389)", "binding signal / z-score": 2.74}
{"item-sequence": "CCGATTAACATCAAGAATTCCCATGATGTTAATCGGGTCTTGATTCGCTTGACGCTGCTG", "target-under-test": "GST-Aq-NF-kB (Amphimedon queenslandica, UniProt A9Y5G7 2-389)", "binding signal / z-score": 4.33}

Specify binding signal for CCGATTAACATCATCTGGGAAAATGATGTTAATCGGGTCTTGATTCGCTTGACGCTGCTG , system GST-Aq-NF-kB (Amphimedon queenslandica, UniProt A9Y5G7 2-389). 1.45

Specify binding signal for CCGATTAACATCAGATATTCCCCTGATGTTAATCGGGTCTTGATTCGCTTGACGCTGCTG , system GST-Aq-NF-kB (Amphimedon queenslandica, UniProt A9Y5G7 2-389). 7.31

Specify binding signal for CCGATTAACATCAAGGAAAACCCTGATGTTAATCGGGTCTTGATTCGCTTGACGCTGCTG , system GST-Aq-NF-kB (Amphimedon queenslandica, UniProt A9Y5G7 2-389). 4.66

Specify binding signal for CCGATTAACATCACCGGATTTCCTGATGTTAATCGGGTCTTGATTCGCTTGACGCTGCTG , system GST-Aq-NF-kB (Amphimedon queenslandica, UniProt A9Y5G7 2-389). 1.54
